Source: patent US8148391B2

Attribute: IC50
# TARGET OF ASSAY: baculovirus-expressed ALK (Homo sapiens)
# Construct: host or cells: baculovirus expression system
# ASSAY NOTES: ALK Kinase Assay (ELISA-type, time-resolved fluorescence)
# Type: biochemical
# CONDITION SUMMARY: ALK kinase inhibition, 1 μM ATP; read-out: ALK Activity

CN1Cc2cc(Nc3ncc(Cl)c(Nc4ccccc4-c4nccn4C)n3)ccc2CCC1=O; 1000 to 10000 nM
CNC(=O)c1cccc(F)c1Nc1nc(Nc2ccc3c(c2)N(C(C)C)C(=O)CCC3)ncc1Cl; < 100 nM
CCN1CCNC(=O)c2ccc(Nc3ncc(Cl)c(N[C@@H]4CCCC[C@H]4NS(C)(=O)=O)n3)cc21; < 100 nM
CC1(C)CCCN(CCN2CCCC2)c2cc(Nc3ncc(Cl)c(N[C@H]4[C@@H](C(N)=O)[C@@H]5C=C[C@H]4C5)n3)ccc21; < 100 nM
COc1cc2c(cc1Nc1ncc(Cl)c(N[C@@H]3CCCC[C@H]3NS(C)(=O)=O)n1)NC(=O)CN(C(C)=O)C2; < 100 nM

Then this compound:
Summary for this compound, CNC(=O)c1ccc(Cl)c(Cl)c1Nc1nc(Nc2ccc3c(c2)CCOC(=O)N3C)ncc1Cl : IC50 is 100 to 1000 nM

---

Attribute: IC50
# TARGET OF ASSAY: baculovirus-expressed ALK (Homo sapiens, UniProt Q9UM73)
# Construct: host or cells: baculovirus expression system
# Sequence (Q9UM73 19-1620): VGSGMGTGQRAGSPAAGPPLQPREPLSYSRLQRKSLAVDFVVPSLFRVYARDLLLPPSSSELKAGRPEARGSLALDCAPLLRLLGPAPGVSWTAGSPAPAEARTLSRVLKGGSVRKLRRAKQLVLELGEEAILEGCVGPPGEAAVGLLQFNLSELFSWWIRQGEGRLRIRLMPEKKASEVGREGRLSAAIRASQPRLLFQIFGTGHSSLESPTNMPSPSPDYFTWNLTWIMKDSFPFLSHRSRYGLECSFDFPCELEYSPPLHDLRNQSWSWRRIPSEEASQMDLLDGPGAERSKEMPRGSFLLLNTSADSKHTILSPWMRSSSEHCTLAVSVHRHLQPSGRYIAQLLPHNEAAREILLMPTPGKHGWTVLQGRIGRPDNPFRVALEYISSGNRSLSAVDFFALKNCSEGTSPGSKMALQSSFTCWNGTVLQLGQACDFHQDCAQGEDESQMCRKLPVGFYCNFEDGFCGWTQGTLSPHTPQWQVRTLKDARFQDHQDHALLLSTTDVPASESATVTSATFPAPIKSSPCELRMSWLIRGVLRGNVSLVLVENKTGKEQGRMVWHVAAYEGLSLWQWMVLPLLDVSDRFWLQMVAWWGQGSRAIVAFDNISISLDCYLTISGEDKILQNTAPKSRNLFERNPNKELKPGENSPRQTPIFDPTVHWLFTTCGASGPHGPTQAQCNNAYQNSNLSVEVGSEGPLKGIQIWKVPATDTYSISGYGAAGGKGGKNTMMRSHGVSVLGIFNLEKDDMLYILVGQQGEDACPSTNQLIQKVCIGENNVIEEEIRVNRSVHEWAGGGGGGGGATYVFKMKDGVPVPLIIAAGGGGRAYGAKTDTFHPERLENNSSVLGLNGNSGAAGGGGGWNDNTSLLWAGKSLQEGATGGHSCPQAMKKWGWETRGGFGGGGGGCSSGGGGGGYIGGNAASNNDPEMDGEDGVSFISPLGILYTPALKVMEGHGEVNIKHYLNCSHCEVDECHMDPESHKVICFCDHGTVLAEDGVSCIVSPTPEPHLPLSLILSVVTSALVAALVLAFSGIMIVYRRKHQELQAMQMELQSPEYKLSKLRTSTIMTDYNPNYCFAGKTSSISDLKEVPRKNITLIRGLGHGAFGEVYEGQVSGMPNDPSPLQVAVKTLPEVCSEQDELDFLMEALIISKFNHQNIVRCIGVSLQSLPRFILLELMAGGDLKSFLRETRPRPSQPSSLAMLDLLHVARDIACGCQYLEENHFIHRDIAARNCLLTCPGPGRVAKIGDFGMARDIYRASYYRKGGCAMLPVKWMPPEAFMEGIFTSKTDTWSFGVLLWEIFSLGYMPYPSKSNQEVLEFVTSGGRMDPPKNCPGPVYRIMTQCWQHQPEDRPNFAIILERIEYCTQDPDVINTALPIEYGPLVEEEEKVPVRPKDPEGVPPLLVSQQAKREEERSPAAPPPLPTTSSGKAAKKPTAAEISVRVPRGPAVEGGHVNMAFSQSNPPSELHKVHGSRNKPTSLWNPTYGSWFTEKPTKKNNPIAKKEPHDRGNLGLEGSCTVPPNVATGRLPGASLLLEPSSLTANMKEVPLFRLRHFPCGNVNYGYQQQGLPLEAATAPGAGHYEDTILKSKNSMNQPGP
# ASSAY NOTES: ALK Kinase Assay (ELISA-type, time-resolved fluorescence)
# Type: biochemical
# CONDITION SUMMARY: 1 μM ATP (Km level), 30 ng/ml ALK, 37° C., 15 minutes; read-out: ALK Activity (ALK kinase inhibition, IC50 class)

Sample records with IC50:
COc1cc2c(cc1Nc1ncc(Cl)c(N[C@@H]3CCCC[C@H]3NS(C)(=O)=O)n1)CCC(N1CCN(C)CC1)CC2 (single isomer, unassigned) [Example 1102]; < 100 nM
CNC(=O)CN1CCc2cc(Nc3ncc(Cl)c(NC4C5C=CC(C5)C4C(N)=O)n3)c(OC)cc2CC1 (stereo not drawn); < 100 nM

Then this compound:
Summary for this compound, COc1cc2c(cc1Nc1ncc(Cl)c(Nc3ccccc3S(=O)(=O)N(C)C)n1)CCN(CC(=O)N1CCC1)CC2 : IC50 is < 100 nM

---

# TARGET OF ASSAY: baculovirus-expressed ALK (Homo sapiens)
# Construct: host or cells: baculovirus expression system
# ASSAY NOTES: ALK Kinase Assay (ELISA-type, time-resolved fluorescence)
# Assay type: biochemical
# CONDITION SUMMARY: ALK kinase inhibition, 1 μM ATP; read-out: ALK Activity
# Method: Briefly, each 96-well plate was coated with 100 μL/well of 10 μg/mL substrate (phospholipase C-γ) in Tris-buffered saline (TBS). […] The reaction was initiated by adding enzyme (30 ng/ml ALK) and was allowed to proceed at 37° C. for 15 minutes. Detection of the phosphorylated product was performed by adding 100 μl/well of Eu-N1 labeled PT66 antibody (Perkin Elmer # AD0041). Data analysis was performed using ActivityBase (IDBS, Guilford, UK). […]
pIC50: −log10 of the molar value.
PROPERTY: pIC50

Sample records with pIC50:
CNC(=O)c1cccc(F)c1Nc1nc(Nc2ccc3c(c2)N(C(=O)CN)CCCC3(C)C)ncc1Cl; 6.00 to 7.00
CCN1CC(O)(CO)COc2cc(Nc3ncc(Cl)c(Nc4c(F)cccc4C(=O)NC)n3)ccc21 (stereo not shown); 6.00 to 7.00
CNC(=O)c1cccc(F)c1Nc1nc(Nc2ccc3c(c2)N(CCOC)C(=O)CCC3(C)C)ncc1Cl; > 7.00

Summary for this compound, CN(C)[C@@H]1CCN(S(=O)(=O)c2ccccc2Nc2nc(Nc3ccc4c(c3)NC(=O)CCC4(C)C)ncc2Cl)C1 : pIC50 is > 7.00

Summary for this compound, CCN1C(=O)CN(S(C)(=O)=O)Cc2ccc(Nc3ncc(Cl)c(Nc4ccsc4C(=O)NC)n3)cc21 : pIC50 is 5.00 to 6.00

Summary for this compound, CNC(=O)c1cccc(F)c1Nc1nc(Nc2ccc3c(c2)N(CCOC)CCCC3(C)C)ncc1Cl : pIC50 is > 7.00

Summary for this compound, C#CCNC(=O)c1cc(F)cc(F)c1Nc1nc(Nc2ccc3c(c2)N(C(=O)N2CCCC2)CCCC3(C)C)ncc1Cl : pIC50 is 5.00 to 6.00

---

Attribute: pIC50
# TARGET OF ASSAY: c-Met (cytoplasmic domain) (Homo sapiens)
# Construct: 10 ng/mL c-Met (cytoplasmic domain, Invitrogen Corporation #PV3143); purchased Invitrogen Corporation PV3143
# Sequence (P08581 956-1390 limits assumed): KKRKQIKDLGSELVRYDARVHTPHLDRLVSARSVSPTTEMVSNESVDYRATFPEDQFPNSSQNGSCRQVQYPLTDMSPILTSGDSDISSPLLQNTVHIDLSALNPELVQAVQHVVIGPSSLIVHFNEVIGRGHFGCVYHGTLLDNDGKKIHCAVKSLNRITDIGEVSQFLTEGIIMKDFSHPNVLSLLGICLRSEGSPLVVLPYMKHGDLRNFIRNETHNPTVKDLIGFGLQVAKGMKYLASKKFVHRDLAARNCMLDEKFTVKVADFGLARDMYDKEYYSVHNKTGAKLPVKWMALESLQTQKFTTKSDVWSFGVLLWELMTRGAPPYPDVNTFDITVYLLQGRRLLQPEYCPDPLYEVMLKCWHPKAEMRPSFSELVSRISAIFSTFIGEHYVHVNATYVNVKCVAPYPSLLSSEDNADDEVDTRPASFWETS
# ASSAY NOTES: c-Met Kinase Assay (same methods as for ALK, with modifications)
# Type: biochemical
# CONDITION SUMMARY: 1 μM ATP (Km level); read-out: cMet Activity (c-Met Kinase Inhibition, IC50)
pIC50: −log10 of the molar value.

Summary for this compound, CN1CCN(C2CCc3ccc(Nc4ncc(Cl)c(Nc5ccccc5S(=O)(=O)N(C)C)n4)cc3CC2)CC1 (stereo not drawn) : pIC50 is 6.00 to 7.00

Summary for this compound, CC1(C)CCC(=O)Nc2ccc(Nc3ncc(Cl)c(Nc4ccccc4-c4ncccc4C(F)(F)F)n3)cc21 : pIC50 is < 5.00

---

# TARGET OF ASSAY: c-Met (cytoplasmic domain) (Homo sapiens)
# Construct: 10 ng/mL c-Met (cytoplasmic domain, Invitrogen Corporation #PV3143); purchased Invitrogen Corporation PV3143
# ASSAY NOTES: c-Met Kinase Assay (same methods as for ALK, with modifications)
# Format: biochemical
# CONDITION SUMMARY: 1 μM ATP (Km level), 10 ng/mL c-Met; read-out: cMet Activity (c-Met kinase inhibition, IC50 class)
pIC50: −log10 of the molar value.
Attribute: pIC50

Sample records with pIC50:
COc1cc2c(cc1Nc1ncc(Cl)c(Nc3ccccc3S(=O)(=O)N3CCC(O)C3)n1)CCNC(=O)C2 (stereo not shown); 6.00 to 7.00
COc1cc2c(cc1Nc1ncc(Cl)c(N[C@@H]3CCCC[C@H]3NS(C)(=O)=O)n1)CCC(NCC(F)F)CC2 (single isomer, unassigned) [Example 1058]; < 5.00
COc1cc2c(cc1Nc1ncc(Cl)c(Nc3ccccc3S(=O)(=O)C(C)C)n1)CCC(NCC(F)F)CC2 (stereo not shown); 5.00 to 6.00
Cc1cccnc1-c1ccccc1Nc1nc(Nc2ccc3c(c2)CCC(N2CCOCC2)CC3)ncc1Cl (stereo not shown); 5.00 to 6.00
CN1C(=O)OCCc2cc(Nc3ncc(Cl)c(Oc4c(F)cccc4OC4CCOC4)n3)ccc21 (stereo not shown); 5.00 to 6.00
CNC(=O)c1ccc(NC(C)=O)cc1Nc1nc(Nc2ccc3c(c2)C(C)(C)CCC(=O)N3)ncc1Cl; 5.00 to 6.00

Summary for this compound, CNC(=O)c1sccc1Nc1nc(Nc2ccc3c(c2)OCCCN3C(=O)OCCCN(C)C)ncc1Cl : pIC50 is 6.00 to 7.00

---

# TARGET OF ASSAY: baculovirus-expressed ALK (Homo sapiens, UniProt Q9UM73)
# Construct: host or cells: baculovirus expression system
# ASSAY NOTES: ALK Kinase Assay (ELISA-type, time-resolved fluorescence)
# Format: biochemical
# CONDITION SUMMARY: ALK kinase inhibition, 1 μM ATP; read-out: ALK Activity
PROPERTY: IC50

Sample records with IC50:
COc1cc2c(cc1Nc1ncc(Cl)c(N[C@H]3[C@@H](C(N)=O)[C@@H]4C=C[C@H]3C4)n1)NC(=O)CN(CC1CC1)C2; < 100 nM
COc1cc2c(cc1Nc1ncc(Cl)c(Nc3ccccc3OC)n1)CCOC(=O)N2C; < 100 nM
CNC(=O)c1cccc(C)c1Nc1nc(Nc2ccc3c(c2)CCOC(=O)N3C)ncc1Cl; 1000 to 10000 nM
CNC(=O)c1cc(C)cc(C)c1Nc1nc(Nc2ccc3c(c2)CN(C)C(=O)CC3)ncc1Cl; 1000 to 10000 nM
Cc1nnc(-c2ccccc2Nc2nc(Nc3ccc4c(c3)CCOC(=O)N4C)ncc2Cl)s1; 100 to 1000 nM

Summary for this molecule, COc1cc2c(cc1Nc1ncc(Cl)c(N[C@H]3[C@@H](C(N)=O)[C@@H]4C=C[C@H]3C4)n1)CCN(CCN1CCOCC1)CC2 : IC50 is < 100 nM

Summary for this molecule, COc1cc2c(cc1Nc1ncc(Cl)c(N[C@@H]3CCCC[C@H]3NS(C)(=O)=O)n1)CCOC(=O)N2C : IC50 is < 100 nM

Summary for this molecule, COc1cc2c(cc1Nc1ncc(Cl)c(Nc3ccccc3S(=O)(=O)N(C)C)n1)CCN(CC(=O)N1CCN(C)CC1)CC2 : IC50 is < 100 nM

Summary for this molecule, COc1cc2c(cc1Nc1ncc(Cl)c(Nc3ccc(N(C)C)cc3OC)n1)CCN(CC(=O)N1CCN(C)CC1)CC2 : IC50 is < 100 nM

Summary for this molecule, O=C1CCCc2ccc(Nc3ncc(Cl)c(Nc4ccccc4OCCN4CCOCC4)n3)cc2N1 : IC50 is > 10000 nM

Summary for this molecule, CCN([C@@H]1CCCC[C@H]1Nc1nc(Nc2cc3c(cc2OC)CCN(CCOC)CC3)ncc1Cl)S(C)(=O)=O : IC50 is < 100 nM
